assay: Method 11: Single Dose Pharmacokinetics and Oral Bioavailability in Male Sprague-Dawley Rat; type: in vivo; conditions: plasma, iv, 2 mg/kg, mean
Documented clearance across a set of compounds
// units = mL/min/kg; emit number, no label

CCc1nn(CCOCC(F)(F)F)c2c(Nc3cc(C)ncn3)nc(N3CCC(C(=O)O)CC3)nc12 | 60.1

// recorded clearance for `Cc1ccnc(Nc2nc(N3CCC(C(=O)O)CC3)nc3c(C)nn(CCOCC(F)(F)F)c23)c1` : 1.75

// recorded clearance for `Cc1cc(Nc2nc(N3CCC(C(=O)O)CC3)nc3c(C)nn(CCOCC(F)(F)F)c23)ncn1` : 76.3
